# %Inh values compiled below
- System: DDR2;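 further: KINOMEscan kinase panel screen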
- Protocol Conditions: concentration: 1 μM, replicates: in singlicate; n = 1

Compound: Nc1nccc2scc(-c3ccc4c(c3)CCN4C(=O)Cc3cc(F)ccc3F)c12
Experimental Value: 1%
--
Compound: CCCc1ccc(S(=O)(=O)NC2CCN(c3ccnc(Nc4ccc(OC)cc4)n3)C2)cc1 (stereo not drawn)
Experimental Value: 34%
--
Compound: O=C(CCO)NCCn1ccc2ncnc(Nc3ccc(Oc4cccc(C(F)(F)F)c4)c(Cl)c3)c21
Experimental Value: 0%
--
Compound: COc1ccc(NC(=O)c2ccc(-c3cc(-c4nnc(C)o4)ccc3C)cc2)cc1
Experimental Value: 9%

Query: Request the reported %Inh associated with `COC(=O)c1cccc(NC(=O)NCCNc2ccnc(Nc3ccc(F)cc3)n2)c1`
Reply: 17%

Query: Cool, now `COc1cc2c(Nc3cccc(NC(=O)c4ccccc4)c3)ncnc2cc1OCCCN1CCOCC1`
Reply: 16%

Query: What do we get for `Cl.O=S(=O)(c1cccc(F)c1)c1ccc(Nc2ncnc3cc(Br)sc23)cc1Cl` ?
Reply: 0%

Query: What about `Nc1nc(-c2cccnc2)c(-c2ccnc3ccccc23)s1` ?
Reply: 43%
